System: L1210 leukemia ip in BDF1 mice, survival T/C
Assay: NCI In Vivo Anticancer Drug Screen. Data for tumor model L1210 Leukemia (intraperitoneal) in B6D2F1 (BDF1) mice
Details: endpoint: mean survival time; dose: 25.0 mg/kg/injection; schedule: Q04DX002 (ip); vehicle: saline; higher = longer survival
Toxic doses and inconclusive results are not listed.
Recorded T/C by entry

compound: CC(C)C(N)C(=O)OC(=O)C(N)CCCCN (centres undefined)
T/C: 104 % of control

compound: COC1OC2COC(c3ccccc3)OC2C(OC(=S)SCc2ccccc2)C1OC(=O)c1ccccc1 (centres undefined)
T/C: 100 % of control

compound: OCC1OC(n2cnc3c2ncn2ccnc32)C(O)C1O (centres undefined)
T/C: 97 % of control

compound: CN(C)CCCNc1c2ccc(Cl)cc2nc2ccc(O)cc12
T/C: 115 % of control

* * *

Recorded T/C by entry
System: L1210 leukemia ip in BDF1 mice, survival T/C
Assay: NCI In Vivo Anticancer Drug Screen. Data for tumor model L1210 Leukemia (intraperitoneal) in B6D2F1 (BDF1) mice
Conditions: endpoint: mean survival time; dose: 400.0 mg/kg/injection; schedule: Q04DX003 (ip); vehicle: saline; higher = longer survival
Toxic doses and inconclusive results are not listed.

molecule: O=C(C1C2CCC(CC2)C1C(=O)N1CCCCC1)N1CCCCC1 (stereo not drawn)
T/C: 100 % of control
//
molecule: CNCCO
T/C: 102 % of control
//
molecule: CC1(C)CC2(C)CC(=O)C1C(C(=O)O)C2C(=O)O (stereo not drawn)
T/C: 89 % of control
//
molecule: [Br][Nd]([Br])[Br]
T/C: 86 % of control
//
molecule: CCCCOP(=O)(NNC=O)OCCCC
T/C: 95 % of control
//
molecule: O=[N+]([O-])c1cccc(P(=O)(c2cccc([N+](=O)[O-])c2)c2cccc([N+](=O)[O-])c2)c1
T/C: 106 % of control
//
molecule: CCOP(=O)(OCC)Oc1ccccc1
T/C: 94 % of control
//
molecule: CC(=O)NCC1CCC(CNC(C)=O)CC1 (stereo not drawn)
T/C: 100 % of control
//
molecule: CCC[N+](=CC1CCCCC1)CCC
T/C: 91 % of control
//
molecule: CS(=O)(=O)OCC(=O)NCCNC(=O)COS(C)(=O)=O
T/C: 116 % of control
//
molecule: CCN(CC)C(=O)Cn1ccc(N)nc1=O
T/C: 102 % of control
//
molecule: O=S(=O)(O)c1ccc(CCCCCCl)cc1
T/C: 96 % of control
//
molecule: C/C=C/C(=O)OC1CC2OC3C=C(C)C4OC4C3(C)C1(C)C21CO1 (stereo not drawn)
T/C: 88 % of control
//
molecule: CCCCOC(=O)c1ccc(NC(=O)C(Cl)Cl)cc1
T/C: 89 % of control
//
molecule: CCCCOCCOc1ccc(C(=O)O)cc1
T/C: 87 % of control
//
molecule: CC(C)NC(=O)NS(=O)(=O)c1ccc(N)cc1
T/C: 110 % of control
//
molecule: O=CNC(Cc1ccc(O)cc1)C(=O)O (stereo not drawn)
T/C: 93 % of control
//
molecule: CC(=O)CCCCC(=O)O
T/C: 100 % of control
//
molecule: COc1ccc(CC2Cc3cc(OC)c(OC)cc3C=N2)cc1OC (stereo not drawn)
T/C: 91 % of control
//
molecule: COC(=O)C(C)=C1CCCCC1
T/C: 95 % of control
//
molecule: CCCCOc1ccccc1NC(=O)CCl
T/C: 93 % of control
//
molecule: [Br][La]([Br])[Br]
T/C: 91 % of control
//
molecule: Clc1ccccc1Nc1c2ccccc2nc2ccccc12
T/C: 96 % of control

* * *

Recorded T/C by entry
System: L1210 leukemia ip in BDF1 mice, survival T/C
Assay: NCI In Vivo Anticancer Drug Screen. Data for tumor model L1210 Leukemia (intraperitoneal) in B6D2F1 (BDF1) mice
Conditions: endpoint: mean survival time; dose: 200.0 mg/kg/injection; schedule: Q01DX009 (ip); vehicle: Klucel (hydroxypropylcellulose) (HPC); higher = longer survival
Inconclusive results and toxic doses are left out.

entry smiles: CCc1ccccc1NC(=O)Nc1ccccc1
T/C: 98 % of control
//
entry smiles: CCCCCCCCOc1ccc(C=Nc2ccc(C(=O)OCC)cc2)cc1
T/C: 92 % of control
//
entry smiles: CCCCOCCOP(OCCOCCCC)OCCOCCCC
T/C: 102 % of control
//
entry smiles: Cc1ccc(C(=O)c2cccc([N+](=O)[O-])c2)cc1
T/C: 103 % of control
//
entry smiles: Cc1ccc(Cl)c(NC(=O)Nc2ccccc2Cl)c1
T/C: 93 % of control
//
entry smiles: CNC(=S)N/N=C/c1ccc(OC)c(OC)c1OC
T/C: 120 % of control
//
entry smiles: CN(C)c1ccc(C=C2/C(=N\O)c3ccccc3/C2=N/O)cc1
T/C: 96 % of control
//
entry smiles: COc1ccc(/C=C2\C(=O)OC(=O)\C2=C\c2ccc(OC)c(OC)c2)cc1OC
T/C: 97 % of control
//
entry smiles: COc1ccc(C(=O)OCCN(CCN(CCOC(=O)c2ccc(OC)cc2)C(=O)c2ccc(OC)cc2)C(=O)c2ccc(OC)cc2)cc1
T/C: 94 % of control
//
entry smiles: O=[N+]([O-])/C(=C/C=C/c1ccccc1)c1ccccc1
T/C: 86 % of control

* * *

Tested on: L1210 leukemia ip in BDF1 mice, survival T/C
Test: NCI In Vivo Anticancer Drug Screen. Data for tumor model L1210 Leukemia (intraperitoneal) in B6D2F1 (BDF1) mice
Settings: endpoint: mean survival time; dose: 150.0 mg/kg/injection; schedule: Q01DX001 (ip); vehicle: carboxymethylcellulose (CMC); higher = longer survival
Toxic doses and inconclusive results are not listed.
endpoint: T/C

compound: O/N=C/c1ccc(Cc2ccccc2)o1
measurement target: L1210 leukemia ip in BDF1 mice, survival T/C
result: 100 % of control
//
compound: COc1cc2c(cc1O)CCN(C)C2Cc1ccc(OC)c(OC)c1 (centres undefined)
measurement target: L1210 leukemia ip in BDF1 mice, survival T/C
result: 94 % of control
//
compound: CC(C)CN(CC(C)C)Cn1nnc2ccccc21
measurement target: L1210 leukemia ip in BDF1 mice, survival T/C
result: 94 % of control
//
compound: CN(N)C(=O)Nc1ccccc1Cl
measurement target: L1210 leukemia ip in BDF1 mice, survival T/C
result: 107 % of control

* * *

Recorded T/C by entry
Test system: L1210 leukemia ip in BDF1 mice, survival T/C
Assay: NCI In Vivo Anticancer Drug Screen. Data for tumor model L1210 Leukemia (intraperitoneal) in B6D2F1 (BDF1) mice
Settings: endpoint: mean survival time; dose: 50.0 mg/kg/injection; schedule: Q04DX002 (ip); vehicle: Klucel (hydroxypropylcellulose) (HPC); higher = longer survival
Procedure: The antitumor activity of compounds was measured in mice bearing transplantable tumors. Survival or tumor size were measured and the results are expressed as the measurement made in the treated group (T) divided by the measurement made in the vehicle treated control group (C). The tumor model used in this assay is L1210 Leukemia (intraperitoneal) in B6D2F1 (BDF1) mice
Inconclusive results and toxic doses are left out.

compound: NC(=O)CCC(NC(=O)OCc1ccccc1)C(=O)NCC(=O)O (stereo not given)
T/C: 92 % of control

compound: CCc1nc(N[N+](=O)[O-])nc(N)c1-c1ccccc1O
T/C: 97 % of control

compound: COc1cc2c(cc1O)C(CCc1cc(OC)c(OC)c(OC)c1)=[N+](C)CC2
T/C: 101 % of control

compound: NC(=O)NC(=O)CCl
T/C: 103 % of control

compound: CC(=O)c1cccc2ccccc12
T/C: 100 % of control

* * *

System: L1210 leukemia ip in BDF1 mice, survival T/C
Experiment: NCI In Vivo Anticancer Drug Screen. Data for tumor model L1210 Leukemia (intraperitoneal) in B6D2F1 (BDF1) mice
Settings: endpoint: mean survival time; dose: 300.0 mg/kg/injection; schedule: Q01DX001 (ip); vehicle: carboxymethylcellulose (CMC); higher = longer survival
Inconclusive results and toxic doses are left out.
Recorded T/C by entry

entry smiles: c1ccc(CNc2nccs2)cc1
T/C: 95 % of control
//
entry smiles: CNCc1cccc2ccccc12
T/C: 107 % of control
//
entry smiles: CC(C)CN(CC(C)C)Cn1nnc2ccccc21
T/C: 108 % of control
//
entry smiles: O=C(c1ccccc1)N(CCCl)C(=O)N(CCCl)C(=O)c1ccccc1
T/C: 103 % of control

* * *

Recorded T/C by entry
Test system: L1210 leukemia ip in BDF1 mice, survival T/C
Experiment: NCI In Vivo Anticancer Drug Screen. Data for tumor model L1210 Leukemia (intraperitoneal) in B6D2F1 (BDF1) mice
Conditions: endpoint: mean survival time; dose: 25.0 mg/kg/injection; schedule: Q01DX009 (ip); vehicle: Klucel (hydroxypropylcellulose) (HPC); higher = longer survival
Toxic doses and inconclusive results are not listed.

entry smiles: Cc1ccc(C)c(NC(=O)Oc2ccc(C(=O)OCc3ccccc3)cc2)c1
measurement target: L1210 leukemia ip in BDF1 mice, survival T/C
T/C: 100 % of control
--
entry smiles: CCN(CC)CCCC#CCN1CCCCC1
measurement target: L1210 leukemia ip in BDF1 mice, survival T/C
T/C: 100 % of control
--
entry smiles: C=CCOC1C=CC=CC=C1
measurement target: L1210 leukemia ip in BDF1 mice, survival T/C
T/C: 100 % of control
